# experiment summary: Intravenous/oral pharmacokinetics and tissue distribution in mice
# Type: in vivo
# condition context: female, ICR, mouse, plasma, iv, 10 mg/kg i.v., read-out: CL (systemic plasma clearance) (converted)
assay readout: clearance (mL/min/kg)
Respond with the bare value in mL/min/kg.

get_value(item= O=C(N[C@@H](Cc1ccccn1)C(=O)N[C@@H](CCc1ccccc1)B(O)O)c1cnccn1 , readout=clearance) returns 8.33

* * *

# system tested: CYP450 2D6 (Homo sapiens)
# Construct: Piramal Pharma Solutions (contract laboratory)
# Sequence (P10635 whole entry): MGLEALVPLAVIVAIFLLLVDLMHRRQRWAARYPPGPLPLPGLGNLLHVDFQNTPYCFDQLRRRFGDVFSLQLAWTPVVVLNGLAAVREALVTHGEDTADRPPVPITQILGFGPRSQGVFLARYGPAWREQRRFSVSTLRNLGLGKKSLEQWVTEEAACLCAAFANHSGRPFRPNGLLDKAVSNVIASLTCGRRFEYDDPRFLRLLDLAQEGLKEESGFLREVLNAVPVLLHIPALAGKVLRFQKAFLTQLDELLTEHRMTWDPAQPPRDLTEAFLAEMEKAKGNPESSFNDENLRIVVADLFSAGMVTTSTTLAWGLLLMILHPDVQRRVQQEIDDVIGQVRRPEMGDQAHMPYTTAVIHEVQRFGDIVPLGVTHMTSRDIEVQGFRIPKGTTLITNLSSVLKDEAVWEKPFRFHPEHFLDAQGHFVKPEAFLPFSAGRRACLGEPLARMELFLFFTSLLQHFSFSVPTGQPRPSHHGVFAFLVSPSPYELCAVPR
# experiment summary: Recombinant cytochrome P450 enzyme assay, 2D6
# Type: in vitro ADME
# condition context: highest concentration tested 10 μM
assay readout: IC50

get_value(item= O=C(N[C@@H](Cc1ccccn1)C(=O)N[C@@H](CCc1ccccc1)B(O)O)c1cnccn1 , readout=IC50) returns > 10 µM

* * *

# experiment summary: Intravenous/oral pharmacokinetics and tissue distribution in mice
# Type: in vivo
# condition context: female, ICR, mouse, plasma, iv, 10 mg/kg i.v., read-out: T½ (elimination half-life) (converted)
assay readout: half-life (h)
Respond with the bare value in h.

get_value(item= O=C(N[C@@H](Cc1ccccn1)C(=O)N[C@@H](CCc1ccccc1)B(O)O)c1cnccn1 [Compound 58] , readout=half-life) returns 3.7

* * *

# experiment summary: Intravenous/oral pharmacokinetics and tissue distribution in mice
# Assay type: in vivo
# condition context: female, ICR, mouse, po, 100 mg/kg p.o., brain, Fig. 10B, read-out: AUC0-inf, Brain
assay readout: AUC(0-inf) (ng·h/mL)
Respond with the bare value in ng·h/mL.

get_value(item= O=C(N[C@@H](Cc1ccccn1)C(=O)N[C@@H](CCc1ccccc1)B(O)O)c1cnccn1 [Compound 58] , readout=AUC(0-inf)) returns 378

* * *

# experiment summary: Intravenous/oral pharmacokinetics and tissue distribution in mice
# Format: in vivo
# condition context: female, ICR, mouse, po, 100 mg/kg p.o., brain, Fig. 10B, read-out: AUC0-t(last), Brain
assay readout: AUC(0-t) (ng·h/mL)
Respond with the bare value in ng·h/mL.

get_value(item= O=C(N[C@@H](Cc1ccccn1)C(=O)N[C@@H](CCc1ccccc1)B(O)O)c1cnccn1 , readout=AUC(0-t)) returns 286

* * *

# system tested: Cathepsin G (Homo sapiens)
# Construct: Reaction Biology Corporation (contract testing)
# Sequence (P08311 21-255, species assumed): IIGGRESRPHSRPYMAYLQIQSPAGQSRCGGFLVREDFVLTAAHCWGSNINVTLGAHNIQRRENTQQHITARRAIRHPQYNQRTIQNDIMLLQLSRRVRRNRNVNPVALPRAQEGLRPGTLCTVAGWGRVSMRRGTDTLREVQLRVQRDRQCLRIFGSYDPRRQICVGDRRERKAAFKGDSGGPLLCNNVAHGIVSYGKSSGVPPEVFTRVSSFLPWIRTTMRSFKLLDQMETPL
# experiment summary: Protease panel: Cathepsin G
# Format: biochemical
# condition context: supplement panel table, test and control compound
assay readout: IC50

get_value(item= CC(C)C[C@H](NC(=O)[C@@H](NC(=O)N[C@@H](Cc1ccccc1)C(=O)O)[C@@H]1CCN=C(N)N1)C(=O)N[C@H](C=O)Cc1ccccc1 [Chymostatin, reference compound] , readout=IC50) returns 3.83 µM

* * *

# system tested: Plasma kallikrein (Homo sapiens, UniProt P03952)
# Construct: Reaction Biology Corporation (contract testing)
# Sequence (P03952 20-638, species assumed): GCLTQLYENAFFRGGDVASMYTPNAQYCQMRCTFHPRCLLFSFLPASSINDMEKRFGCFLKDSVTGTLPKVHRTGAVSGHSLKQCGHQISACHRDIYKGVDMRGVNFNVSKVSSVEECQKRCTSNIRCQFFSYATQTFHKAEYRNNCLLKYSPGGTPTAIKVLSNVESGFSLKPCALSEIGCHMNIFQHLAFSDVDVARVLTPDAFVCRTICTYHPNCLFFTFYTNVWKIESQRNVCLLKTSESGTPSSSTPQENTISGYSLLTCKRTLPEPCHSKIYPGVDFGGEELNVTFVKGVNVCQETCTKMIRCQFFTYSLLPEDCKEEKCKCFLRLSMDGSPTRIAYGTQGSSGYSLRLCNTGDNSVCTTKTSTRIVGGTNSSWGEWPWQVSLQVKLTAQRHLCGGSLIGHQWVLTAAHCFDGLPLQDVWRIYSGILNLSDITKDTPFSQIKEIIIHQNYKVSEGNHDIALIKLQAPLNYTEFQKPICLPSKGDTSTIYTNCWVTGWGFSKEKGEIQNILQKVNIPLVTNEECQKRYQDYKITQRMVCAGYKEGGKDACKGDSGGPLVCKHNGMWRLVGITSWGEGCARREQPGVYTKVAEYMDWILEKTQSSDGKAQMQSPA
# experiment summary: Protease panel: Plasma kallikrein
# Format: biochemical
# condition context: supplement panel table, test and control compound
Counter-ions that a name gives are not always drawn.
assay readout: IC50 (µM)
Respond with the bare value in µM.

get_value(item= CCOC(=O)c1ccc(OC(=O)CCCCCN=C(N)N)cc1 [Gabexate mesylate (GM), Gabexate mesylate] , readout=IC50) returns 0.475

* * *

# system tested: Kallikrein 12 (Homo sapiens, UniProt Q9UKR0)
# Sequence (Q9UKR0 18-248, species assumed): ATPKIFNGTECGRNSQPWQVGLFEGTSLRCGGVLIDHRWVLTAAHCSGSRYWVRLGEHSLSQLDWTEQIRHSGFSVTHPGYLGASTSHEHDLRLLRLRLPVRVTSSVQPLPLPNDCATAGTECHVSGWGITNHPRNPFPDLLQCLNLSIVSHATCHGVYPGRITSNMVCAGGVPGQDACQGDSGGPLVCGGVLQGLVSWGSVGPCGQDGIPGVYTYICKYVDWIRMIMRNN
# experiment summary: Protease panel: Kallikrein 12
# Type: biochemical
# condition context: supplement panel table, test and control compound
Where a name gives a salt, the structure may show the parent alone.
assay readout: IC50 (µM)
Respond with the bare value in µM.

get_value(item= CCOC(=O)c1ccc(OC(=O)CCCCCN=C(N)N)cc1 [Gabexate mesylate (GM), Gabexate mesylate] , readout=IC50) returns 0.351
